# Method notes: qHTS of TDP-43 Inhibitors; further: nearly all actives have a fitted effect of over 50% in size
# Conditions used: TDP-43 expressing yeast growth rescue, BacTiter-Glo, 24 h; series mostly up to 46.1 µM
Out of some 410,000 compounds screened, about 7,200 (1.8%) were called active. Another 7% or so got no clear call; they are omitted. The call rests on the fitted dose curve; in most records, active means well fitted activation curve with a large enough effect; inconclusive means small, poorly fitted or top-dose-only effect, or another doubt; inactive means no such curve, though single readings can be large or run the other way. This is one part of a sample in which actives are shown more often than they occur.
Please reply with one of these outcomes: active, inactive

Solved entries:
>  <Compound>
O=C(Nc1cc(-c2nc3ncccc3o2)ccc1Cl)c1ccco1

>  <Group>
inactive

$$$$
>  <Compound>
COc1cc(F)ccc1-c1cc(C(=O)NCC2CCCCC2)[nH]n1

>  <Group>
active

$$$$
>  <Compound>
COc1cccc(C2=CC(=O)C[C@H](c3ccc(OC)c(OC)c3)C2)c1

>  <Group>
active

$$$$
>  <Compound>
COc1ccccc1CNC(=O)c1cc(-c2cc(Cl)ccc2C)n[nH]1

>  <Group>
inactive

$$$$

Inquiry: Assay result, entry CC1CC(C)(C)NC(=S)N1CCC(=O)N1CCN(Cc2ccccc2)CC1 (centres undefined) — outcome?
Reply text: inactive

Inquiry: Status in this test for CCOc1ccc(N2CC(c3nc4ccccc4n3CCOc3ccc(OC)cc3)CC2=O)cc1 (centres undefined) ?
Reply text: inactive

Inquiry: // return assay outcome for CSc1ccccc1-c1nnc(NC(=O)c2ccc3c(c2)OCCO3)o1
Reply text: inactive

Inquiry: For CCOc1ccc(N(CC)S(=O)(=O)N2CCCC(C(=O)NCc3ccc(SC)cc3)C2)cc1 (centres undefined) , which call appears in the assay record?
Reply text: inactive

Inquiry: Which outcome was entered for the compound O=C(Nc1cccc(NC(=O)c2ccco2)c1)c1cnccn1 in this test?
Reply text: active

Inquiry: What is the recorded call for this compound in the test? CCc1ccccc1N(C)C(=O)C1CCCN(c2ncnc3onc(-c4ccc(F)cc4)c23)C1 (centres undefined)
Reply text: inactive
